Test: Monkey pharmacokinetics, SC and IV administration
Assay type: in vivo, cynomolgus monkeys
Settings: male, cynomolgus monkey, plasma; animal 9697, M; 30 mg/kg SC single dose
Numbered stars: 1 amine (or outer) side, 2 acyl side, 3 side chain; on linkers, the order of the positions; unused ones are H or OH. Bridge positions count the residues as written; N and C are the ends. Square brackets hold non-standard residues; d marks the D form. Peptide text beside a SMILES is read from it. * marks the point of attachment. ξ: configuration not given here. Orn(4R-OH,5R-OCH2CH2NMe3+) = C[N+](C)(C)CCO[C@@H](N[*:3])[C@H](O)C[C@H](N[*:1])C(=O)[*:2]; pTerphenylCO(4''-OnC5H11) = CCCCCOc1ccc(-c2ccc(-c3ccc(C(=O)*)cc3)cc2)cc1; hTyr(3S-OH,4S-OH) = N[C@H](C(=O)O)[C@H](O)[C@@H](O)c1ccc(O)cc1; X1 = C[C@H]1CN([*:1])C(C(=O)[*:2])C1O; Hyp = O=C(O)[C@@H]1C[C@@H](O)CN1; ξT = CC(O)C(N)C(=O)O

compound: CCCCCOc1ccc(-c2ccc(-c3ccc(C(=O)N[C@H]4C[C@@H](O)[C@@H](OCC[N+](C)(C)C)NC(=O)C5C(O)[C@@H](C)CN5C(=O)[C@H]([C@@H](C)O)NC(=O)[C@H]([C@H](O)[C@@H](O)c5ccc(O)cc5)NC(=O)[C@@H]5C[C@@H](O)CN5C(=O)C(C(C)O)NC4=O)cc3)cc2)cc1 (stereo partly drawn) [CD101] ({pTerphenylCO(4''-OnC5H11)}-[Orn(4R-OH,5R-OCH2CH2NMe3+)][ξT][Hyp][hTyr(3S-OH,4S-OH)]T[X1]; lactam 1-C)
AUC(0-t): 2740 µg·h/mL

====

Test: Monkey pharmacokinetics, SC and IV administration
Assay type: in vivo, cynomolgus monkeys
Details: female, cynomolgus monkey, plasma; animal 9707, F; 30 mg/kg SC single dose; read-out: AUCINF_obs
Numbered stars: 1 amine (or outer) side, 2 acyl side, 3 side chain; on linkers, the order of the positions; unused ones are H or OH. Bridge positions count the residues as written; N and C are the ends. Square brackets hold non-standard residues; d marks the D form. Peptide text beside a SMILES is read from it. * marks the point of attachment. ξ: configuration not given here. Orn(4R-OH,5R-OCH2CH2NMe3+) = C[N+](C)(C)CCO[C@@H](N[*:3])[C@H](O)C[C@H](N[*:1])C(=O)[*:2]; pTerphenylCO(4''-OnC5H11) = CCCCCOc1ccc(-c2ccc(-c3ccc(C(=O)*)cc3)cc2)cc1; hTyr(3S-OH,4S-OH) = N[C@H](C(=O)O)[C@H](O)[C@@H](O)c1ccc(O)cc1; X1 = C[C@H]1CN([*:1])C(C(=O)[*:2])C1O; Hyp = O=C(O)[C@@H]1C[C@@H](O)CN1; ξT = CC(O)C(N)C(=O)O

compound: CCCCCOc1ccc(-c2ccc(-c3ccc(C(=O)N[C@H]4C[C@@H](O)[C@@H](OCC[N+](C)(C)C)NC(=O)C5C(O)[C@@H](C)CN5C(=O)[C@H]([C@@H](C)O)NC(=O)[C@H]([C@H](O)[C@@H](O)c5ccc(O)cc5)NC(=O)[C@@H]5C[C@@H](O)CN5C(=O)C(C(C)O)NC4=O)cc3)cc2)cc1 (stereo partly drawn) [CD101] ({pTerphenylCO(4''-OnC5H11)}-[Orn(4R-OH,5R-OCH2CH2NMe3+)][ξT][Hyp][hTyr(3S-OH,4S-OH)]T[X1]; lactam 1-C)
AUC(0-inf) (µg·h/mL): 3760

====

Experiment: Monkey pharmacokinetics, SC and IV administration
Format: in vivo, cynomolgus monkeys
Details: female, cynomolgus monkey, plasma; animal 9707, F; 30 mg/kg SC single dose
Numbered stars: 1 amine (or outer) side, 2 acyl side, 3 side chain; on linkers, the order of the positions; unused ones are H or OH. Bridge positions count the residues as written; N and C are the ends. Square brackets hold non-standard residues; d marks the D form. Peptide text beside a SMILES is read from it. * marks the point of attachment. ξ: configuration not given here. Orn(4R-OH,5R-OCH2CH2NMe3+) = C[N+](C)(C)CCO[C@@H](N[*:3])[C@H](O)C[C@H](N[*:1])C(=O)[*:2]; pTerphenylCO(4''-OnC5H11) = CCCCCOc1ccc(-c2ccc(-c3ccc(C(=O)*)cc3)cc2)cc1; hTyr(3S-OH,4S-OH) = N[C@H](C(=O)O)[C@H](O)[C@@H](O)c1ccc(O)cc1; X1 = C[C@H]1CN([*:1])C(C(=O)[*:2])C1O; Hyp = O=C(O)[C@@H]1C[C@@H](O)CN1; ξT = CC(O)C(N)C(=O)O
property-label: Cmax (ng/mL)

compound: CCCCCOc1ccc(-c2ccc(-c3ccc(C(=O)N[C@H]4C[C@@H](O)[C@@H](OCC[N+](C)(C)C)NC(=O)C5C(O)[C@@H](C)CN5C(=O)[C@H]([C@@H](C)O)NC(=O)[C@H]([C@H](O)[C@@H](O)c5ccc(O)cc5)NC(=O)[C@@H]5C[C@@H](O)CN5C(=O)C(C(C)O)NC4=O)cc3)cc2)cc1 (stereo partly drawn) [CD101] ({pTerphenylCO(4''-OnC5H11)}-[Orn(4R-OH,5R-OCH2CH2NMe3+)][ξT][Hyp][hTyr(3S-OH,4S-OH)]T[X1]; lactam 1-C)
property-label: Cmax
value-observed: 10900

====

Assay: Plasma protein binding by ultracentrifugation
Type: in vitro ADME
Details: mouse plasma; read-out: percent of bound CD101, mean (protein binding) (converted)
Numbered stars: 1 amine (or outer) side, 2 acyl side, 3 side chain; on linkers, the order of the positions; unused ones are H or OH. Bridge positions count the residues as written; N and C are the ends. Square brackets hold non-standard residues; d marks the D form. Peptide text beside a SMILES is read from it. * marks the point of attachment. ξ: configuration not given here. Orn(4R-OH,5R-OCH2CH2NMe3+) = C[N+](C)(C)CCO[C@@H](N[*:3])[C@H](O)C[C@H](N[*:1])C(=O)[*:2]; pTerphenylCO(4''-OnC5H11) = CCCCCOc1ccc(-c2ccc(-c3ccc(C(=O)*)cc3)cc2)cc1; hTyr(3S-OH,4S-OH) = N[C@H](C(=O)O)[C@H](O)[C@@H](O)c1ccc(O)cc1; X1 = C[C@H]1CN([*:1])C(C(=O)[*:2])C1O; Hyp = O=C(O)[C@@H]1C[C@@H](O)CN1; ξT = CC(O)C(N)C(=O)O

molecule: CCCCCOc1ccc(-c2ccc(-c3ccc(C(=O)N[C@H]4C[C@@H](O)[C@@H](OCC[N+](C)(C)C)NC(=O)C5C(O)[C@@H](C)CN5C(=O)[C@H]([C@@H](C)O)NC(=O)[C@H]([C@H](O)[C@@H](O)c5ccc(O)cc5)NC(=O)[C@@H]5C[C@@H](O)CN5C(=O)C(C(C)O)NC4=O)cc3)cc2)cc1 (stereo partly drawn) [CD101] ({pTerphenylCO(4''-OnC5H11)}-[Orn(4R-OH,5R-OCH2CH2NMe3+)][ξT][Hyp][hTyr(3S-OH,4S-OH)]T[X1]; lactam 1-C)
fraction unbound at 2.5 hr: 0.008

====

Experiment: Monkey pharmacokinetics, SC and IV administration
Format: in vivo, cynomolgus monkeys
Conditions: female, cynomolgus monkey, plasma; animal 9707, F; 30 mg/kg SC single dose
Method: Therefore, only local tolerability (and PK) of CD101 by SC administration required evaluation. […] Plasma concentrations were then quantified by liquid chromatography with tandem mass spectrometric detection (LC-MS/MS). Bioavailability from SC dosing was calculated by comparing the calculated area under the concentration-time profile (AUC) from SC against the AUC from IV administration of the same dose.
Numbered stars: 1 amine (or outer) side, 2 acyl side, 3 side chain; on linkers, the order of the positions; unused ones are H or OH. Bridge positions count the residues as written; N and C are the ends. Square brackets hold non-standard residues; d marks the D form. Peptide text beside a SMILES is read from it. * marks the point of attachment. ξ: configuration not given here. Orn(4R-OH,5R-OCH2CH2NMe3+) = C[N+](C)(C)CCO[C@@H](N[*:3])[C@H](O)C[C@H](N[*:1])C(=O)[*:2]; pTerphenylCO(4''-OnC5H11) = CCCCCOc1ccc(-c2ccc(-c3ccc(C(=O)*)cc3)cc2)cc1; hTyr(3S-OH,4S-OH) = N[C@H](C(=O)O)[C@H](O)[C@@H](O)c1ccc(O)cc1; X1 = C[C@H]1CN([*:1])C(C(=O)[*:2])C1O; Hyp = O=C(O)[C@@H]1C[C@@H](O)CN1; ξT = CC(O)C(N)C(=O)O
property-label: Tmax

compound: CCCCCOc1ccc(-c2ccc(-c3ccc(C(=O)N[C@H]4C[C@@H](O)[C@@H](OCC[N+](C)(C)C)NC(=O)C5C(O)[C@@H](C)CN5C(=O)[C@H]([C@@H](C)O)NC(=O)[C@H]([C@H](O)[C@@H](O)c5ccc(O)cc5)NC(=O)[C@@H]5C[C@@H](O)CN5C(=O)C(C(C)O)NC4=O)cc3)cc2)cc1 (stereo partly drawn) [CD101] ({pTerphenylCO(4''-OnC5H11)}-[Orn(4R-OH,5R-OCH2CH2NMe3+)][ξT][Hyp][hTyr(3S-OH,4S-OH)]T[X1]; lactam 1-C)
value-observed: 48 h
